Data origin: PubChem BioAssay

Molecular target: NADPH oxidase 4 (Homo sapiens)
Assay: NOX4-dependent H2O2 signal modulators, primary screen, NOX inhibitor project, cell-based, HEK293-NOX4, tetracycline-induced, Amplex Red fluorescence (AID 1160)
Settings: 45 min, higher = more signal, called active from +8 up or from −8 down
Quick rule: z-score of at least 0.3 means satisfied, below that means not satisfied.

Some solved entries appear below for comparison.
molecule	assignedCategory
COc1ccc([Si](C)(C)[C@@H]2[C@@H](CCO)O[C@]3(C(=O)N(Cc4ccc(N5C(=O)COc6ccccc65)cc4)c4ccccc43)[C@H]2C)cc1	satisfied
O=C1c2ccccc2[C@](Cc2ccccc2I)(C(=O)NC2CC2)[C@H](c2ccc(CO)cc2)N1Cc1ccccc1	not satisfied
CC(C)C[C@@H]1NC(=O)[C@@H]2C[C@H](C(=O)NCCCCCN)[C@H](c3cccc(OCCO)c3)N2C1=O	satisfied
COc1ccc(C(=O)O[C@H]2CC[C@]3(C)C4=C(CCC3C2(C)C)[C@]2(C)CC[C@H]([C@H](C)CCCC(C)C)[C@@]2(C)CC4)cc1 (stereo partly specified)	not satisfied
C=CCOC(=O)[C@@H]1[C@H]2C(=O)O[C@H](c3ccccc3)[C@H](c3ccccc3)N2[C@H](c2ccc(OCCOC(=O)[C@@H]3C[C@@H]4C(=O)N[C@@H](CCCC[N+](C)(C)C)C(=O)N4[C@@H]3c3cccc(OCCO)c3)cc2)[C@@]12C(=O)Nc1ccc(I)cc12	satisfied
COc1ccc(C#Cc2ccc3c(c2)[C@]2(C(=O)N3)[C@H](c3ccccc3OCCO)N3[C@H](c4ccccc4)[C@H](c4ccccc4)OC(=O)[C@H]3[C@@H]2C(=O)O)cc1	not satisfied
COCCOC(=O)N1C(=O)[C@@]2(c3cc(C#CC4=CCCCC4)ccc31)[C@H](C(N)=O)[C@H]1C(=O)O[C@H](c3ccccc3)[C@H](c3ccccc3)N1[C@@H]2c1ccc(OCCO)cc1	satisfied
C=C/C=C/[C@H]1C(=C)CN([C@@H](Cc2ccccc2)C(=O)OC)[C@@H]1[C@H](O)Cc1ccccc1	not satisfied

QUERY: Does CCN(CC)c1ccc(N2CC=CC34O[C@@H]5/C=C\CCCOC(=O)C5[C@H]3C(=O)N(CCO)[C@@H]4C2=O)cc1 (stereo partly specified) have a reported z-score of at least 0.3?
RESULT: not satisfied

QUERY: Does `CN(C)C(=O)[C@@]1(Cc2ccccc2)N=C(c2ccc(OCCCO)cc2)O[C@H]1c1ccccc1N=[N+]=[N-]` have a reported z-score of at least 0.3?
RESULT: satisfied

QUERY: Does `COCCOC(=O)N1C(=O)[C@@]2(c3cc(C#CC4(O)CCCCCC4)ccc31)[C@H](c1ccc(O)cc1)N1[C@H](c3ccccc3)[C@H](c3ccccc3)OC(=O)[C@H]1[C@@H]2C(=O)Nc1nc2ccccc2s1` have a reported z-score of at least 0.3?
RESULT: satisfied

* * *

List of composite z-score values.
Target: Torsin-1A (Homo sapiens)
Assay: small-molecule binders of mutant TOR1A in lysate, primary screen, cell lysate, small-molecule microarray, COS7 lysate, 635/667 nm fluorescence (AID 1150);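 further: score pools 667 nm emission and signal to noise measuring lysate protein binding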
Settings: COS7 hTOR1A mutant lysate, 635 nm fluorescence, higher = more signal
I only need the number, thanks.

Answered examples (2):
> print(dat)
                                   compound                measuredon  value
1  O=C1NCC(=O)N2[C@@H]1C[C@@H](C(=O)O)[C@H]2c1cccc(OCCO)c1  Torsin-1A (Homo sapiens)   3.69
2      CCCCC(=C=CC[C@@H](O)c1ccccc1OCCO)CCO  Torsin-1A (Homo sapiens)  0.286

QUERY: Report composite z-score for COc1cc(OC)c(C(O)C2C=CC3C(=O)NC(=O)C3N2Nc2ccc(Cl)cc2Cl)cc1Br (stereo not drawn) please.
RESULT: 0.414

QUERY: Report composite z-score for `COC(=O)[C@@]1(Cc2ccc(OC)cc2)[C@H]2c3cc(C(=O)N(C)C)n(Cc4cccc5ccccc45)c3C[C@H]2CN1C(=O)c1ccccc1` please.
RESULT: 1.14

QUERY: Report composite z-score for O=C1OCCC/C=C\[C@H]2OC34C=CCN(CCN5CCOCC5)C(=O)[C@H]3N(CCCO)C(=O)[C@@H]4C12 (stereo partly drawn) please.
RESULT: 1.01

QUERY: Report composite z-score for `[N-]=[N+]=NCc1ccccc1C[C@]1(C(=O)N2CCOCC2)N=C(c2ccc(OCCCO)cc2)O[C@H]1c1ccccc1N=[N+]=[N-]` please.
RESULT: 1.44

QUERY: Report composite z-score for `CC(C)N1C(=O)[C@@]2(Cc3ccccc31)c1ccccc1C(=O)N(C1CCCCC1)[C@H]2c1ccc(CO)cc1` please.
RESULT: 0.333

QUERY: Report composite z-score for `O=C(NCc1ccccc1)[C@@H]1c2ccccc2C(=O)N(CC23CC4CC(CC(C4)C2)C3)[C@H]1c1ccc(CO)cc1` please.
RESULT: 0.654
